Data credit: PubChem BioAssay (NCATS)

- Test system: Zika virus NS2B-NS3 protease
- PROTOCOL_TEXT: Primary screen GU AMC qHTS for Zika virus inhibitors (AID 1347154); also: nearly all actives have a fitted effect of over 70% in size
- ASSAY_CONTEXT: Zika NS2B-NS3 unlinked protease, AMC fluorogenic substrate; series mostly up to 54.1 µM
Inconclusive results are not listed. The source made the active and inactive calls. Calls follow the shape of the dose curve; as a rule, active = well fitted inhibition curve with a large enough effect; inconclusive = small, poorly fitted or top-dose-only effect; inactive = flat fitted curve, though single readings scatter.
Labels: active, inactive

> print(dat)
                                    compound     class
 1  COc1cc(N)c(Cl)cc1C(=O)NC1CCN(Cc2ccccc2)CC1  inactive
 2              CC(C)[C@@H]1CC[C@@H](C)CC1=O  inactive
 3           COc1ccc(CN(CCN(C)C)c2ncccn2)cc1  inactive
 4  Cc1cc(C)cc(OCC2CNC(=O)O2)c1 (centres undefined)  inactive
 5    CCN(CC)CCNc1ccc(CO)c2sc3ccccc3c(=O)c12  inactive
 6                    CCCCCCCC/C=C\CCCCCCCCN  inactive
 7              CC(=O)Nc1ncc([N+](=O)[O-])s1  inactive
 8   CCc1oc2ccccc2c1C(=O)c1cc(Br)c(O)c(Br)c1    active
 9     Cc1ccccc1OCC(O)CO (centres undefined)  inactive
10         OC(C#CCN1CCCC1)(c1ccccc1)c1ccccc1  inactive
11               CN(C)C(=O)Nc1ccc(Cl)c(Cl)c1  inactive
12  CN1CCC[C@@H]1CCO[C@](C)(c1ccccc1)c1ccc(Cl)cc1  inactive
13  CC(=O)OCC1=C(C(=O)O)N2C(=O)[C@@H](NC(=O)CSc3ccncc3)[C@H]2SC1  inactive
14                    CCNC(=O)NCc1cccc(Cl)c1  inactive
15  O[C@@H](c1cc(C(F)(F)F)nc2c(C(F)(F)F)cccc12)[C@H]1CCCCN1  inactive
16  C#C[C@]1(O)CC[C@H]2[C@@H]3CCC4=CC(=O)CC[C@@H]4[C@H]3CC[C@@]21CC  inactive
17  C=C[C@@]1(C)CC(=O)[C@]2(O)[C@@]3(C)[C@@H](O)CCC(C)(C)[C@@H]3[C@H](O)[C@H](OC(C)=O)[C@@]2(C)O1  inactive
18  COc1ccc(S(=O)(=O)N2c3ccc(Cl)cc3[C@@](O)(c3ccccc3Cl)[C@H]2C(=O)N2CCC[C@@H]2C(N)=O)cc1OC  inactive
19                Cc1cccc(C)c1NC(=O)CN1CCCC1  inactive
20                  O=C(O)CCc1nc2ccccc2[nH]1  inactive
21        NS(=O)(=O)c1ccc(Cl)c(S(N)(=O)=O)c1  inactive
22  CCCCNc1ccc(C(=O)OCCOCCOCCOCCOCCOCCOCCOCCOCCOC)cc1  inactive
23        CCCCCCCCCCCCCCC[C@H](O)[C@@H](N)CO  inactive
24                    O=C(O)CCNC(=O)c1ccccc1  inactive

* * *

- Tested on: CP238
- PROTOCOL_TEXT: qHTS profiling for inhibitors of Plasmodium falciparum proliferation (AID 504749); also: nearly all actives have a fitted effect of over 60% in size
- ASSAY_CONTEXT: P. falciparum in erythrocytes, SYBR Green DNA, 72 h; series mostly up to 28.7 µM
Results filed as inconclusive are left out. Activity calls are given as the source filed them. Calls follow the shape of the dose curve; as a rule, active = well fitted inhibition curve with a large enough effect; inconclusive = small, poorly fitted or top-dose-only effect; inactive = flat fitted curve, though single readings scatter.
Classes used: active, inactive

MOLECULE	CLASS
Cc1cc2c(OCC(CNC(C)(C)C)OC(=O)c3ccccc3)cccc2[nH]1 (stereo unspecified)	inactive
C[N+]1(CC2COC(c3ccccc3)(C3CCCCC3)O2)CCCCC1 (stereo unspecified)	active
CCC(CC)(CC(=O)Nc1cccc(/C=C/c2nc(C3CCC3)cs2)c1)C(=O)O	inactive
CCC(C(=O)OCCOCCN(CC)CC)c1ccccc1 (stereo unspecified)	inactive
O=c1[nH]c(=O)n([C@H]2C[C@H](O)[C@@H](CO)O2)cc1F	inactive
CC1=C(C(=O)O)N2C(=O)[C@@H](NC(=O)[C@H](N)c3ccccc3)[C@H]2SC1	inactive
CCc1oc2ccccc2c1C(=O)c1cc(Br)c(O)c(Br)c1	inactive
C#C[C@]1(O)CC[C@H]2[C@@H]3CCc4cc(OC)ccc4[C@H]3CC[C@@]21C	inactive
O=C(O)CCc1nc2ccccc2[nH]1	inactive
OC[C@H]1O[C@@H]2O[C@H]3[C@H](O)[C@@H](O)[C@@H](O[C@H]4[C@H](O)[C@@H](O)[C@@H](O[C@H]5[C@H](O)[C@@H](O)[C@@H](O[C@H]6[C@H](O)[C@@H](O)[C@@H](O[C@H]7[C@H](O)[C@@H](O)[C@@H](O[C@H]8[C@H](O)[C@@H](O)[C@@H](O[C@H]1[C@H](O)[C@H]2O)O[C@@H]8CO)O[C@@H]7CO)O[C@@H]6CO)O[C@@H]5CO)O[C@@H]4CO)O[C@@H]3CO	inactive
CC(=O)N[C@@H](CCC(=O)O)C(=O)O	inactive
Cc1cccc(C)c1NC(=O)CN1CCCCCC1	inactive
O=C(NC1CCN(CCc2c[nH]c3ccccc23)CC1)c1ccccc1	inactive
CCCCNc1ccc(C(=O)OCCOCCOCCOCCOCCOCCOCCOCCOCCOC)cc1	inactive
CC(=O)Nc1ccc(CC(=O)O)cc1	inactive
CCOc1cc(OCC)c(C(=O)CCC(=O)O)cc1OCC	inactive
CC(=O)NCCCCCC(=O)O	inactive
Cc1ccccc1OCC(O)CO (stereo unspecified)	inactive
CC(C)(C)NC[C@H](O)COc1cccc2c1CCCC2=O	inactive
NC(=S)N/N=C/c1cccnc1	inactive
CC(=O)NO	inactive
